Listing of recorded melting point by entry.

INSERT INTO assay_data (molecule, valuereported) VALUES
  ('CCOC(=O)c1coc(C(Oc2ccc3ncccc3c2)c2ccccc2)n1 (centres unmarked)', '103 to 107 °C'),
  ('FC(F)Oc1ccc(C(Oc2ccc3ncccc3c2)c2nncs2)nc1 (centres unmarked)', '60 to 62 °C');

Item under review: Cc1cnc2ccc(OC(c3ccc(C#N)cn3)c3ncco3)cc2c1 (centres unmarked) . Reported melting point?
168 to 172 °C

Item under review: CO/N=C/c1ccnc(C(Oc2cc(Br)c3ncccc3c2)c2nnco2)c1 (centres unmarked) . Reported melting point?
165 to 167 °C

Item under review: CC(C)O/N=C/c1cc(OC(c2ccc(F)cn2)c2nnco2)cc2cccnc12 (centres unmarked) . Reported melting point?
158 to 159 °C

###

assayEndpoint: melting point

INSERT INTO assay_data (compound, valuereported) VALUES
  ('Fc1ccc(C(Oc2ccc3ncccc3c2)c2nncs2)nc1 (centres unmarked)', '92 to 94 °C'),
  ('c1ccc(C(Oc2ccc3ncccc3c2)c2nncs2)cc1 (centres unmarked)', '149 to 151 °C'),
  ('c1ccc(C(Oc2ccc3ncccc3c2)c2ncco2)cc1 (centres unmarked)', '122 to 124 °C'),
  ('Brc1c(OC(c2ccccc2)c2ncon2)ccc2ncccc12 (centres unmarked)', '53 to 55 °C'),
  ('Fc1ccc(C(Oc2cnc3ncccc3c2)c2nnco2)nc1 (centres unmarked)', '154 to 158 °C');

Item under review: [O-][n+]1cccc2cc(OC(c3ccc(F)cn3)c3nnco3)ccc21 (centres unmarked) . Reported melting point?
176 to 177 °C

Item under review: CCO/N=C/c1ccnc(C(Oc2cc(F)c3ncccc3c2)c2nnco2)c1 (centres unmarked) . Reported melting point?
168 to 171 °C

Item under review: c1ccc(C(Nc2ccc3ncccc3c2)c2nnco2)cc1 (centres unmarked) . Reported melting point?
161 to 163 °C

###

assayEndpoint: melting point

Example results:
INSERT INTO results (compound, valuereported) VALUES
  ('c1ccc(C(Oc2ccc3ncccc3c2)c2cnco2)cc1 (stereo not shown)', '110 to 113 °C'),
  ('CO/N=C/c1cnc2ccc(OC(c3ccc(F)cn3)c3nnco3)cc2c1 (stereo not shown)', '148 to 152 °C'),
  ('Cn1nnnc1C(Oc1ccc2ncccc2c1)c1ccccc1 (stereo not shown)', '111 to 113 °C');

Item under review: CSc1cnc2ccc(OC(c3cc(Cl)c(Cl)cn3)c3nnco3)cc2c1 (stereo not shown) . Reported melting point?
179 to 181 °C

Item under review: Cc1nnc(C(Oc2ccc3ncccc3c2)c2ccccc2)o1 (stereo not shown) . Reported melting point?
114 to 116 °C

Item under review: CO/N=C/c1cc(OC(c2ccc(F)cn2)c2nnco2)cc2cccnc12 (stereo not shown) . Reported melting point?
164 to 166 °C

Item under review: Cc1noc(C(Oc2ccc3ncccc3c2)c2ccc(F)cn2)n1 (stereo not shown) . Reported melting point?
79 to 81 °C

###

assayEndpoint: melting point

Example results:
INSERT INTO measurements (compound, valuereported) VALUES
  ('CC(C)O/N=C/c1ccnc(C(Oc2cc(F)c3ncccc3c2)c2nnco2)c1 (centres unmarked)', '126 to 129 °C'),
  ('CC(C)O/N=C/c1cnc2ccc(OC(c3ccc(F)cn3)c3nnco3)cc2c1 (centres unmarked)', '112 to 115 °C'),
  ('c1ccc(C(Oc2cc3cccnc3cn2)c2nnco2)cc1 (centres unmarked)', '136 to 139 °C');

Item under review: Fc1ccc(C(Oc2ccc3ncccc3c2)c2ncno2)nc1 (centres unmarked) . Reported melting point?
100 to 104 °C

Item under review: CO/N=C/c1ccnc(C(Oc2cc(Cl)c3ncccc3c2)c2nnco2)c1 (centres unmarked) . Reported melting point?
166 to 168 °C

Item under review: Clc1ccc(C(Nc2ccc3ncccc3c2)c2nnco2)cc1 (centres unmarked) . Reported melting point?
151 to 152 °C

Item under review: C#CCO/N=C/c1ccnc(C(Oc2cc(F)c3ncccc3c2)c2nnco2)c1 (centres unmarked) . Reported melting point?
128 to 130 °C

Item under review: c1ccc(C(Sc2ccc3ncccc3c2)c2nnco2)cc1 (centres unmarked) . Reported melting point?
126 to 130 °C

Item under review: CO/N=C/c1ccnc(C(Oc2cc(F)c3ncccc3c2)c2nnco2)c1 (centres unmarked) . Reported melting point?
174 to 177 °C

Item under review: Fc1ccc(C(Oc2cc(Br)c3ncccc3c2)c2nnco2)nc1 (centres unmarked) . Reported melting point?
176 to 182 °C

Item under review: Fc1ccc(C(Oc2ccc3ncccc3c2)c2ncon2)nc1 (centres unmarked) . Reported melting point?
115 to 119 °C
